Tested on: Ileum
assay.overview: Inhibition of electric-field induced guinea pig ileum contraction
Format: functional, tissue-based
cond: Cavia porcellus
measurement.kind: IC50

Here is how some compounds turned out for IC50.
Challenge: Recorded IC50 of N=C(N)NCCC[C@@H](NC(=O)[C@@H](CCCNC(=N)N)NC(=O)CNC(=O)[C@@H]1CSSC[C@H](NC(=O)[C@@H](N)Cc2ccc(O)cc2)C(=O)N[C@@H](Cc2ccccc2)C(=O)N[C@@H](Cc2ccc(Cl)cc2)C(=O)N1)C(=O)O , please.
Response given: 102 nM

Challenge: Would you mind telling me what IC50 value was observed for Cc1cc(O)cc(C)c1C[C@H](N)C(=O)N[C@H]1CSSC[C@@H](C(=O)NCC(=O)N[C@H](CCCNC(=N)N)C(=O)N[C@H](CCCNC(=N)N)C(=O)O)NC(=O)[C@H](Cc2ccc(Cl)cc2)NC(=O)[C@H](Cc2c[nH]c3ccccc23)NC1=O ?
Response given: 9.21 nM

Challenge: What measured IC50 goes with N=C(N)NCCC[C@@H](NC(=O)[C@@H](CCCNC(=N)N)NC(=O)CNC(=O)[C@@H]1CSSC[C@H](NC(=O)[C@@H](N)Cc2ccc(O)cc2)C(=O)N[C@@H](Cc2c[nH]c3ccccc23)C(=O)N[C@@H](Cc2ccccc2)C(=O)N1)C(=O)O ?
Response given: 70.2 nM

Challenge: Name the recorded IC50 for Cc1cc(O)cc(C)c1C[C@H](N)C(=O)N[C@H]1CSSC[C@@H](C(=O)NCC(=O)N[C@H](CCCNC(=N)N)C(=O)N[C@H](CCCNC(=N)N)C(=O)O)NC(=O)[C@H](Cc2ccc(Cl)cc2)NC(=O)[C@H](Cc2ccccc2)NC1=O .
Response given: 11.8 nM

Challenge: # input compound: NC(=O)[C@H](Cc1ccccc1)NC(=O)[C@H](Cc1ccccc1)NC(=O)[C@@H]1CCCN1C(=O)[C@@H](N)Cc1ccc(O)cc1 [ENDOMORPHIN 2] ; wanted: its IC50
Response given: 11.3 nM

Challenge: Requested field: IC50. Item: N=C(N)NCCC[C@@H](NC(=O)[C@@H](CCCNC(=N)N)NC(=O)CNC(=O)[C@@H]1CSSC[C@H](NC(=O)[C@@H](N)Cc2ccc(O)cc2)C(=O)N[C@@H](Cc2c[nH]c3ccccc23)C(=O)N[C@@H](Cc2ccc(Cl)cc2)C(=O)N1)C(=O)O
Response given: 97.4 nM

Challenge: Given N=C(N)NCCC[C@@H](NC(=O)[C@@H](CCCNC(=N)N)NC(=O)CNC(=O)[C@@H]1CSSC[C@H](NC(=O)[C@@H](N)Cc2ccc(O)cc2)C(=O)N[C@@H](Cc2ccccc2)C(=O)N[C@@H](Cc2ccccc2)C(=O)N1)C(=O)O , state its recorded IC50.
Response given: 74.6 nM

In the following, a different compound is considered.
Challenge: Field request: IC50 | item: NC(=O)[C@H](Cc1ccccc1)NC(=O)[C@H](Cc1c[nH]c2ccccc12)NC(=O)[C@@H]1CCCN1C(=O)[C@@H](N)Cc1ccc(O)cc1 [ENDOMORPHIN-1]
Response given: 8.73 nM

====

Tested on: Mus musculus
assay.overview: Antinociceptive activity in Kunming mouse model assessed as increase in paw withdrawal latency at 10 micromol/kg, sc by radiant heat paw withdrawal assay
Format: functional, organism-based
cond: dose 10.0 µmol/kg
The source made the active and inactive calls. No cut-off for these calls is given here.
In this exercise, the only acceptable responses are 1 = active, 0 = inactive

Challenge: Hey, what did the test say about Cc1cc(O)cc(C)c1C[C@H](N)C(=O)N[C@H]1CSSC[C@@H](C(=O)NCC(=O)N[C@H](CCCNC(=N)N)C(=O)N[C@H](CCCNC(=N)N)C(=O)O)NC(=O)[C@H](Cc2ccc(Cl)cc2)NC(=O)[C@H](Cc2ccccc2)NC1=O ?
Response given: 1

Challenge: What outcome does the record of this test show for NC(=O)[C@H](Cc1ccccc1)NC(=O)[C@H](Cc1ccccc1)NC(=O)[C@@H]1CCCN1C(=O)[C@@H](N)Cc1ccc(O)cc1 [ENDOMORPHIN 2] ?
Response given: 0

Challenge: Each molecule tested received a call. Report the one for NC(=O)[C@H](Cc1ccccc1)NC(=O)[C@H](Cc1c[nH]c2ccccc12)NC(=O)[C@@H]1CCCN1C(=O)[C@@H](N)Cc1ccc(O)cc1 [ENDOMORPHIN-1] .
Response given: 0

Note: attention shifts to another entry.
Challenge: Please indicate how the test categorized Cc1cc(O)cc(C)c1C[C@H](N)C(=O)N[C@H]1CSSC[C@@H](C(=O)NCC(=O)N[C@H](CCCNC(=N)N)C(=O)N[C@H](CCCNC(=N)N)C(=O)O)NC(=O)[C@H](Cc2ccc(Cl)cc2)NC(=O)[C@H](Cc2c[nH]c3ccccc23)NC1=O .
Response given: 1

====

Test system: Vas deferens
assay.overview: Inhibition of electric-field induced mouse vas deferens contraction
Type: functional, tissue-based
measurement.kind: pIC50
Keep it numeric: pIC50 is minus log10 of the concentration in mol/L.

Challenge: # get_value(readout= pIC50, system= Vas deferens) for NC(=O)[C@H](Cc1ccccc1)NC(=O)[C@H](Cc1c[nH]c2ccccc12)NC(=O)[C@@H]1CCCN1C(=O)[C@@H](N)Cc1ccc(O)cc1 [ENDOMORPHIN-1]
Response given: 7.30

Continuing:
Challenge: Identify the measured pIC50 of Cc1cc(O)cc(C)c1C[C@H](N)C(=O)N[C@H]1CSSC[C@@H](C(=O)NCC(=O)N[C@H](CCCNC(=N)N)C(=O)N[C@H](CCCNC(=N)N)C(=O)O)NC(=O)[C@H](Cc2ccc(Cl)cc2)NC(=O)[C@H](Cc2c[nH]c3ccccc23)NC1=O for Vas deferens.
Response given: 7.32

Challenge: Checklist item: pIC50 tested on Vas deferens, entry N=C(N)NCCC[C@@H](NC(=O)[C@@H](CCCNC(=N)N)NC(=O)CNC(=O)[C@@H]1CSSC[C@H](NC(=O)[C@@H](N)Cc2ccc(O)cc2)C(=O)N[C@@H](Cc2c[nH]c3ccccc23)C(=O)N[C@@H](Cc2ccc(Cl)cc2)C(=O)N1)C(=O)O , value?
Response given: 6.86

====

assayed.system: Mu-type opioid receptor (Rattus norvegicus)
Sequence (P33535 whole entry): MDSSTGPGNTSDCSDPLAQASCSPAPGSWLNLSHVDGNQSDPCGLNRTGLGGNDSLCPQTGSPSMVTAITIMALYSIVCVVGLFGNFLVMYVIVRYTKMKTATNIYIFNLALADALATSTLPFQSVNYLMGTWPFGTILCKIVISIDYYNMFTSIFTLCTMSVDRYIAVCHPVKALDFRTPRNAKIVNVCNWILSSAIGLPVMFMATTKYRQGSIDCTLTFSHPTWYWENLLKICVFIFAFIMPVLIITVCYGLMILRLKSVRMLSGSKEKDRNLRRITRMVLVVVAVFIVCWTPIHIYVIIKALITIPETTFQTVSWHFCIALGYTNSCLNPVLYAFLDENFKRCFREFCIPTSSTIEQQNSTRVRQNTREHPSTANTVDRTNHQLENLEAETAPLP
Kindly apply the following: yes if Ki is less than 50 nM, no in every other case.

Study these solved cases before continuing.
Challenge: In plain terms, does N=C(N)NCCC[C@@H](NC(=O)[C@@H](CCCNC(=N)N)NC(=O)CNC(=O)[C@@H]1CSSC[C@H](NC(=O)[C@@H](N)Cc2ccc(O)cc2)C(=O)N[C@@H](Cc2c[nH]c3ccccc23)C(=O)N[C@@H](Cc2ccc(Cl)cc2)C(=O)N1)C(=O)O come in under 50 nM for Ki?
Response given: no

Challenge: Strictly below 50 nM: is that where Ki of N=C(N)NCCC[C@@H](NC(=O)[C@@H](CCCNC(=N)N)NC(=O)CNC(=O)[C@@H]1CSSC[C@H](NC(=O)[C@@H](N)Cc2ccc(O)cc2)C(=O)N[C@@H](Cc2ccccc2)C(=O)N[C@@H](Cc2ccc(Cl)cc2)C(=O)N1)C(=O)O sits?
Response given: no

Challenge: Please determine if Cc1cc(O)cc(C)c1C[C@H](N)C(=O)N[C@H]1CSSC[C@@H](C(=O)NCC(=O)N[C@H](CCCNC(=N)N)C(=O)N[C@H](CCCNC(=N)N)C(=O)O)NC(=O)[C@H](Cc2ccc(Cl)cc2)NC(=O)[C@H](Cc2c[nH]c3ccccc23)NC1=O is below 50 nM in terms of Ki.
Response given: yes

Others:
Challenge: Field: below-cutoff. Rule: recorded Ki strictly less than 50 nM. Subject: Cc1cc(O)cc(C)c1C[C@H](N)C(=O)N[C@H]1CSSC[C@@H](C(=O)NCC(=O)N[C@H](CCCNC(=N)N)C(=O)N[C@H](CCCNC(=N)N)C(=O)O)NC(=O)[C@H](Cc2ccc(Cl)cc2)NC(=O)[C@H](Cc2ccccc2)NC1=O
Response given: yes

Challenge: Consider the molecule N=C(N)NCCC[C@@H](NC(=O)[C@@H](CCCNC(=N)N)NC(=O)CNC(=O)[C@@H]1CSSC[C@H](NC(=O)[C@@H](N)Cc2ccc(O)cc2)C(=O)N[C@@H](Cc2c[nH]c3ccccc23)C(=O)N[C@@H](Cc2ccccc2)C(=O)N1)C(=O)O . Is its Ki strictly less than 50 nM?
Response given: yes

Challenge: Confirm or reject: Ki of N=C(N)NCCC[C@@H](NC(=O)[C@@H](CCCNC(=N)N)NC(=O)CNC(=O)[C@@H]1CSSC[C@H](NC(=O)[C@@H](N)Cc2ccc(O)cc2)C(=O)N[C@@H](Cc2ccccc2)C(=O)N[C@@H](Cc2ccccc2)C(=O)N1)C(=O)O lies strictly below 50 nM
Response given: yes

====

assayed.system: UniProt P35372
Sequence (P35372 whole entry): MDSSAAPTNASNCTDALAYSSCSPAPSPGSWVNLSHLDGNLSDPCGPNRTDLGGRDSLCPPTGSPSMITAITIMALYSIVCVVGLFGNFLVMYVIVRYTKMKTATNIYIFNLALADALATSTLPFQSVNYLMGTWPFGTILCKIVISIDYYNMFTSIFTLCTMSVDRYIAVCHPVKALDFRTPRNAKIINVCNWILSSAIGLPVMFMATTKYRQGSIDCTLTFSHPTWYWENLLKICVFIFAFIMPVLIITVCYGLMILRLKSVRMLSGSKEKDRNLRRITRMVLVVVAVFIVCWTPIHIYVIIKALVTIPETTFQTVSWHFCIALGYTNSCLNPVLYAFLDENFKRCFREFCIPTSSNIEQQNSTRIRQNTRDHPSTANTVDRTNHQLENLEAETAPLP
assay.overview: Agonist activity at mu-opioid receptor (unknown origin) expressed in HEK293 cells assessed as inhibition of forskolin-induced cAMP accumulation incubated for 15 mins by ELISA relative to control
Assay type: functional, cell-based
cond: filed as agonist
Entries and their Emax values follow.
// return numeric value only (unit: %, not printed)

Challenge: Give the reported Emax for N=C(N)NCCC[C@@H](NC(=O)[C@@H](CCCNC(=N)N)NC(=O)CNC(=O)[C@@H]1CSSC[C@H](NC(=O)[C@@H](N)Cc2ccc(O)cc2)C(=O)N[C@@H](Cc2ccccc2)C(=O)N[C@@H](Cc2ccc(Cl)cc2)C(=O)N1)C(=O)O (system: UniProt P35372).
Response given: 79.6

Further cases:
Challenge: Param readout = Emax; param system = UniProt P35372; param query = N=C(N)NCCC[C@@H](NC(=O)[C@@H](CCCNC(=N)N)NC(=O)CNC(=O)[C@@H]1CSSC[C@H](NC(=O)[C@@H](N)Cc2ccc(O)cc2)C(=O)N[C@@H](Cc2ccccc2)C(=O)N[C@@H](Cc2ccccc2)C(=O)N1)C(=O)O ; response: value
Response given: 79.7
